target: Prostaglandin G/H synthase 1 (Homo sapiens) (UniProt P23219); test: Inhibition of COX1; parameters: concentration or dose not given beside the values; conditions: concentration not given here
Sequence (P23219 whole entry): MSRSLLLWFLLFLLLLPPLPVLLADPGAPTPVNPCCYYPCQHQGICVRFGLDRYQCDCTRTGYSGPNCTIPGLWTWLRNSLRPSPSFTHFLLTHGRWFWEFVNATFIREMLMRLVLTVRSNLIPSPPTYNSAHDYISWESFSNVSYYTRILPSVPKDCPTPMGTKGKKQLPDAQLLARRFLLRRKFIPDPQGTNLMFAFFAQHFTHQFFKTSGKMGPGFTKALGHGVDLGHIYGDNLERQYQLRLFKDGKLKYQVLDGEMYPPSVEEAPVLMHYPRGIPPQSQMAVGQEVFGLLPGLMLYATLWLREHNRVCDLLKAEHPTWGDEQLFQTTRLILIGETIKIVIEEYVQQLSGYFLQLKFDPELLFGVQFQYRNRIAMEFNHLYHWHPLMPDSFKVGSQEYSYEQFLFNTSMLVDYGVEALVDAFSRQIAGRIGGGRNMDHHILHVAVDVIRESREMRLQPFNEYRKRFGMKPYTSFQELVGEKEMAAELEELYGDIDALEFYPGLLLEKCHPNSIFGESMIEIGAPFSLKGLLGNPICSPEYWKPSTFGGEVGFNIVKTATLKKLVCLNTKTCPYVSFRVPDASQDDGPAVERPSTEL
// values below are reported inhibition
Value expressed in %; do not type the unit.

Solved entries:
molecule=Oc1ccc(/C=N/c2nnc(CNc3nnc4c5ccccc5nc-4s3)s2)cc1 units_of_measure=% val=25.1
molecule=COc1ccccc1/C=N/c1nnc(CNc2nnc3c4ccccc4nc-3s2)s1 units_of_measure=% val=24.1
molecule=Cc1ccc(/C=N/c2nnc(CNc3nnc4c5ccccc5nc-4s3)s2)cc1 units_of_measure=% val=23.1

Turning now to a further record.
Memo: COc1ccccc1C1C(Cl)C(=O)N1c1nnc(CNc2nnc3c4ccccc4nc-3s2)s1 (stereo not given) , reported inhibition: 38.7

----------
biological target: Prostaglandin G/H synthase 1 (Homo sapiens) (UniProt P23219); assay: Inhibition of COX1; parameters: concentration or dose not given beside the values; conditions: concentration not given here
# if value of inhibition reaches 30%, tag 1; if it stays below, tag 0

compound="Cc1ccc(C2SCC(=O)N2c2nnc(CNc3nnc4c5ccccc5nc-4s3)s2)cc1 (stereo unspecified)" class_name=1

Determine whether this compound has inhibition no lower than 30%: COc1ccc(C2C(Cl)C(=O)N2c2nnc(CNc3nnc4c5ccccc5nc-4s3)s2)cc1 (stereo unspecified)
1

Determine whether this compound has inhibition no lower than 30%: O=C1CSC(c2ccc(O)cc2)N1c1nnc(CNc2nnc3c4ccccc4nc-3s2)s1 (stereo unspecified)
1

Determine whether this compound has inhibition no lower than 30%: "Clc1ccccc1/C=N/c1nnc(CNc2nnc3c4ccccc4nc-3s2)s1"
0

Determine whether this compound has inhibition no lower than 30%: O=C1C(Cl)C(c2ccc(Cl)cc2)N1c1nnc(CNc2nnc3c4ccccc4nc-3s2)s1 (stereo unspecified)
1

Determine whether this compound has inhibition no lower than 30%: O=C1CSC(c2ccc(Cl)cc2)N1c1nnc(CNc2nnc3c4ccccc4nc-3s2)s1 (stereo unspecified)
1
